# activity change, negative = cytotoxicity values compiled below
# experiment.summary: P-glycoprotein substrates identified in KB-8-5-11 adenocarcinoma cell line, qHTS therapeutic library screen (AID 1346987); note: % is set by controls: 0 for no effect and ±100 for the full control effect; nearly all actives have a fitted effect of over 65% in size
# conditions.used: KB-8-5-11 (P-gp overexpressing) viability, CellTiter-Glo, 72 h; series mostly up to 44.5 µM
Records with an inconclusive call do not appear. Calls of active or inactive are those of the source. Calls come from the whole dose curve; as a rule, active = well fitted inhibition curve with a large enough effect; inconclusive = small, poorly fitted or top-dose-only effect; inactive = flat fitted curve, though single readings scatter.

C[C@@H]1O[C@@H](O[C@H]2[C@H](OC(=O)[C@]34CCC(C)(C)C[C@H]3C3=CCC5[C@@]6(C)C[C@H](O)[C@H](O[C@@H]7O[C@H](CO)[C@@H](O)[C@H](O)[C@H]7O)[C@@](C)(CO)C6[C@H](O)C[C@@]5(C)[C@]3(C)C[C@H]4O)OC[C@H](O)[C@@H]2O)[C@H](O)[C@H](O)[C@H]1O[C@@H]1OC[C@@H](O)[C@H](O[C@H]2OC[C@](O)(CO)[C@H]2O)[C@H]1O (stereo partly drawn) | 4.28% [at 9.29 µM] (inactive)
C[C@@H]1O[C@@H](O[C@H]2[C@H](OC(=O)[C@]34CCC(C)(C)C[C@H]3C3=CCC5[C@@]6(C)C[C@H](O)[C@H](O[C@@H]7O[C@H](CO)[C@@H](O)[C@H](O)[C@H]7O)[C@@](C)(CO)C6[C@H](O)C[C@@]5(C)[C@]3(C)CC4)OC[C@H](O)[C@@H]2O)[C@H](O)[C@H](O)[C@H]1O[C@@H]1OC[C@@H](O)[C@H](O[C@@H]2OC[C@](O)(CO)[C@H]2O)[C@H]1O (stereo partly drawn) | 6.69% [at 9.29 µM] (inactive)

Moving on to the next compound.
Problem: Look at this compound and give its reported activity change, negative = cytotoxicity. C[C@@H]1O[C@@H](O[C@@H]2CO[C@@H](O[C@H]3CC[C@@]4(C)C(CC[C@]5(C)C4CC=C4[C@@H]6CC(C)(C)CC[C@]6(C(=O)O[C@@H]6O[C@H](CO)[C@@H](O)[C@H](O)[C@H]6O)CC[C@]45C)[C@]3(C)CO)[C@H](O)[C@H]2O[C@@H]2O[C@H](CO)[C@@H](O)[C@H](O)[C@H]2O)[C@H](O)[C@H](O)[C@H]1O (stereo partly drawn)
Solution: 4.08% [at 9.29 µM] (inactive)
